- subject_of_test: S100B (Homo sapiens, UniProt P04271)
- Construct: made in house; host or cells: Escherichia coli BL21(DE3)
- assay_procedure: Competition pull-down with native ligand RSK1 (689–735)
- Format: binding
- condition_description: H14 library; competitor peptide 200 µM; read-out: Surface mapping KD (apparent), competition
What Kd was measured for each of the following?
Give the number; µM is assumed, so skip it.

Input line: Return Kd for the following compound: `NC(=O)[C@H]1CCCC[C@@H]1NC(=O)C[C@H](Cc1c[nH]c2ccccc12)NC(=O)[C@H]1CCCC[C@@H]1NC(=O)[C@H]1CCCC[C@@H]1NC(=O)C[C@H](CO)NC(=O)[C@H]1CCCC[C@@H]1N`
Output line: 458

Input line: Return Kd for the following compound: `CC[C@H](C)[C@@H](CC(=O)N[C@H]1CCCC[C@@H]1C(=O)N[C@H]1CCCC[C@@H]1C(=O)N[C@@H](CCC(N)=O)CC(=O)N[C@H]1CCCC[C@@H]1C(N)=O)NC(=O)[C@H]1CCCC[C@@H]1N`
Output line: 387

Input line: Return Kd for the following compound: `CC[C@H](C)[C@@H](CC(=O)N[C@H]1CCCC[C@@H]1C(=O)N[C@H]1CCCC[C@@H]1C(=O)N[C@H](CC(=O)N[C@H]1CCCC[C@@H]1C(N)=O)Cc1ccccc1)NC(=O)[C@H]1CCCC[C@@H]1N`
Output line: 64

Input line: Return Kd for the following compound: `NC(=O)[C@H]1CCCC[C@@H]1NC(=O)C[C@H](Cc1c[nH]c2ccccc12)NC(=O)[C@H]1CCCC[C@@H]1NC(=O)[C@H]1CCCC[C@@H]1NC(=O)C[C@H](Cc1ccccc1)NC(=O)[C@H]1CCCC[C@@H]1N`
Output line: 177

---

- subject_of_test: S100B (Homo sapiens, UniProt P04271)
- Construct: made in house; host or cells: Escherichia coli BL21(DE3)
- Sequence (P04271 1-92): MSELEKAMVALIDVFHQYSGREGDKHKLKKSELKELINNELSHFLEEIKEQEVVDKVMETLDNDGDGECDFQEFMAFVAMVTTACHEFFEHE
- assay_procedure: Pull-down assay with immobilized protein and LSM libraries
- Type: binding
- condition_description: H14 library; 1:1 binding assumed; read-out: Surface mapping KD (apparent)
What log10 Kd was measured for each of the following?
Please be aware that the numbers have been log10-transformed from Kd in µM.

Input line: Return log10 Kd for the following compound: C[C@@H](O)[C@@H](CC(=O)N[C@H]1CCCC[C@@H]1C(N)=O)NC(=O)[C@H]1CCCC[C@@H]1NC(=O)[C@H]1CCCC[C@@H]1NC(=O)C[C@H](CCCCN)NC(=O)[C@H]1CCCC[C@@H]1N [H14 KT]
Output line: 2.29

Input line: Return log10 Kd for the following compound: CC(C)C[C@@H](CC(=O)N[C@H]1CCCC[C@@H]1C(=O)N[C@H]1CCCC[C@@H]1C(=O)N[C@@H](C)CC(=O)N[C@H]1CCCC[C@@H]1C(N)=O)NC(=O)[C@H]1CCCC[C@@H]1N [H14 LA]
Output line: 2.23

Input line: Return log10 Kd for the following compound: C[C@@H](CC(=O)N[C@H]1CCCC[C@@H]1C(=O)N[C@H]1CCCC[C@@H]1C(=O)N[C@H](CC(=O)N[C@H]1CCCC[C@@H]1C(N)=O)Cc1ccc(O)cc1)NC(=O)[C@H]1CCCC[C@@H]1N [H14 AY]
Output line: 2.28

Input line: Return log10 Kd for the following compound: CC[C@H](C)[C@@H](CC(=O)N[C@H]1CCCC[C@@H]1C(=O)N[C@H]1CCCC[C@@H]1C(=O)N[C@@H](CCCCN)CC(=O)N[C@H]1CCCC[C@@H]1C(N)=O)NC(=O)[C@H]1CCCC[C@@H]1N [H14 IK]
Output line: 1.92

Input line: Return log10 Kd for the following compound: NCCCC[C@@H](CC(=O)N[C@H]1CCCC[C@@H]1C(N)=O)NC(=O)[C@H]1CCCC[C@@H]1NC(=O)[C@H]1CCCC[C@@H]1NC(=O)C[C@H](CCCCN)NC(=O)[C@H]1CCCC[C@@H]1N [H14 KK]
Output line: 1.72

Input line: Return log10 Kd for the following compound: CC[C@H](C)[C@@H](CC(=O)N[C@H]1CCCC[C@@H]1C(N)=O)NC(=O)[C@H]1CCCC[C@@H]1NC(=O)[C@H]1CCCC[C@@H]1NC(=O)C[C@@H](NC(=O)[C@H]1CCCC[C@@H]1N)[C@@H](C)CC [H14 II]
Output line: 1.28

Data provenance is paper PMC8162404.
